- System: RIVA
- procedureSummary: growth inhibition by drug plus 177Lu-lilotomab satetraxetan (1 - RLU/untreated control) (fraction); higher = stronger inhibition
- conditionInfo: 100 nM; time (day): 5; 177Lu-lilotomab satetraxetan 0.5 ug/ml
Structures can show the parent of a compound that is named as a salt.
Each entry below carries its reported growth inhibition by drug plus 177Lu-lilotomab satetraxetan.
// no unit string in output, number only

The following compounds have reported results that may help.
1) CC1=C(/C=C/C(C)=C/C=C/C(C)=C/C(=O)Nc2ccc(O)cc2)C(C)(C)CCC1 [Fenretinide] = 0.521
2) O=C1NC(=O)/C(=C\c2cccc(C(F)(F)F)c2)S1 = 0.458
3) Cc1cc(Nc2cc(N3CCN(C)CC3)nc(/C=C/c3ccccc3)n2)n[nH]1 = 0.36
4) CN(C)CCOc1ccc(-c2nc(-c3ccncc3)c(-c3ccc4c(c3)CC/C4=N\O)[nH]2)cc1 = 0.378
5) Oc1cccc(-c2nc(N3CCOCC3)c3oc4ncccc4c3n2)c1 = 0.827

**Query** Report growth inhibition by drug plus 177Lu-lilotomab satetraxetan for Nc1cccc2c1CN(C1CCC(=O)NC1=O)C2=O (stereo not given) [Lenalidomide] please.
**Result** 0.499

**Query** Report growth inhibition by drug plus 177Lu-lilotomab satetraxetan for COc1cc2ncnc(Nc3ccc(Oc4ccccc4)cc3)c2cc1OC please.
**Result** 0.556

**Query** Report growth inhibition by drug plus 177Lu-lilotomab satetraxetan for NC(=O)c1ccc2nc(-c3ccc(Oc4ccc(Cl)cc4)cc3)[nH]c2c1 please.
**Result** 0.523

**Query** Report growth inhibition by drug plus 177Lu-lilotomab satetraxetan for Nc1[nH]nc2nnc(-c3c(-c4ccccc4)nn4ccccc34)cc12 please.
**Result** 0.493

**Query** Report growth inhibition by drug plus 177Lu-lilotomab satetraxetan for CNC(=O)c1ccc(C)c(-n2c(C)cc(OCc3ccc(F)cc3F)c(Br)c2=O)c1 please.
**Result** 0.462

**Query** Report growth inhibition by drug plus 177Lu-lilotomab satetraxetan for Nc1ncn([C@H]2C[C@H](O)[C@@H](CO)O2)c(=O)n1 please.
**Result** 0.566

**Query** Report growth inhibition by drug plus 177Lu-lilotomab satetraxetan for CC(C)(C)c1[nH]cnc1/C=c1\[nH]c(=O)/c(=C/c2ccccc2)[nH]c1=O please.
**Result** 0.972

**Query** Report growth inhibition by drug plus 177Lu-lilotomab satetraxetan for COc1cc(Nc2ncc3c(n2)-c2ccc(Cl)cc2C(c2c(F)cccc2OC)=NC3)ccc1C(=O)O please.
**Result** 0.845

**Query** Report growth inhibition by drug plus 177Lu-lilotomab satetraxetan for CCN(CC)CCNC(=O)c1c(C)[nH]c(/C=C2\C(=O)Nc3ccc(F)cc32)c1C [Sunitinib Malate (Sutent)] please.
**Result** 0.387

**Query** Report growth inhibition by drug plus 177Lu-lilotomab satetraxetan for CN1CCN(CCOc2cc(OC3CCOCC3)c3c(Nc4c(Cl)ccc5c4OCO5)ncnc3c2)CC1 please.
**Result** 0.549

**Query** Report growth inhibition by drug plus 177Lu-lilotomab satetraxetan for COc1cc2c(NC3CCN(C)CC3)nc(N3CCCN(C)CC3)nc2cc1OCCCN(C)C please.
**Result** 0.453

**Query** Report growth inhibition by drug plus 177Lu-lilotomab satetraxetan for CCc1cc(-c2n[nH]c(C)c2-c2ccc3c(c2)OCCO3)c(O)cc1O please.
**Result** 0.473

**Query** Report growth inhibition by drug plus 177Lu-lilotomab satetraxetan for O=C1c2c(O)ccc(O)c2C(=O)c2c(NCCNCCO)ccc(NCCNCCO)c21 [Mitoxantrone Hydrochloride] please.
**Result** 0.947

**Query** Report growth inhibition by drug plus 177Lu-lilotomab satetraxetan for O=C(/C=C/c1cccc(S(=O)(=O)Nc2ccccc2)c1)NO please.
**Result** 0.938
